# system: human HSL (Homo sapiens, UniProt Q05469)
# Construct: generate a full length human HSL ORF with a 3′-His6 tag
# Sequence (Q05469 1-1076): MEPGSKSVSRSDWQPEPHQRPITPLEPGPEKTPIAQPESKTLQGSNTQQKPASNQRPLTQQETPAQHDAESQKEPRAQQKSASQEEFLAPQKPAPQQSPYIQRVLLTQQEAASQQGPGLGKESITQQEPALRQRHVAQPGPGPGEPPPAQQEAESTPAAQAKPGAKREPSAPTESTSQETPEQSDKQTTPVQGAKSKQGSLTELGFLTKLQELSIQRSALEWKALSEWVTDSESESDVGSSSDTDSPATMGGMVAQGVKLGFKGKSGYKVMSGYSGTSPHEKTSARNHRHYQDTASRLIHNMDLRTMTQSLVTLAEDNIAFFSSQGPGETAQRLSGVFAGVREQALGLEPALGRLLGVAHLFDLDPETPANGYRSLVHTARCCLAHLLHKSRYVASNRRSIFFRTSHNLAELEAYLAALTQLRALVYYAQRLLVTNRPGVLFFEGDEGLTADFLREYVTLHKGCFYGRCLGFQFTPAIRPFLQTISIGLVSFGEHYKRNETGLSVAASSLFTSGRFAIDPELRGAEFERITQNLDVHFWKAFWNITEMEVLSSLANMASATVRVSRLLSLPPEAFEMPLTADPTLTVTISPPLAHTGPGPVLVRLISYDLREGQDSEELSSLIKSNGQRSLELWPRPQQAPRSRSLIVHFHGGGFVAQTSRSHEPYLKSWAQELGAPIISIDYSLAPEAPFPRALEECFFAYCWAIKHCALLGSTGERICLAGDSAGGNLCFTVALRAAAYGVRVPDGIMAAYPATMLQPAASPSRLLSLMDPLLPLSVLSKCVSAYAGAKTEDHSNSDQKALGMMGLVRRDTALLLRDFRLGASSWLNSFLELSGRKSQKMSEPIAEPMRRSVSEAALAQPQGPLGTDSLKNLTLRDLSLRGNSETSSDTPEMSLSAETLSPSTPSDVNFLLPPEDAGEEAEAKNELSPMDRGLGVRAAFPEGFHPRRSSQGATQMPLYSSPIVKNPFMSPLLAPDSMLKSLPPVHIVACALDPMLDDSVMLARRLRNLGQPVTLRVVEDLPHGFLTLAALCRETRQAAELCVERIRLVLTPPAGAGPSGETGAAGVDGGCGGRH
# test.protocol: Human Hormone-Sensitive Lipase (HSL) enzyme inhibition assay (colorimetric, DMPT substrate)
# particulars: human full length HSL-His6, 2,3-dimercapto-1-propanol tributyrate substrate, 37° C. 20 minutes, absorbance at 405 nm; read-out: HSL hum IC50
// returns no (0) unless IC50 is strictly below 30 nM, in which case yes (1)

molecule	system	group
CC(C)[C@]1(O)CC[C@@]2(CCN(c3ccc(OCC(F)(F)F)nc3)C2=O)CC1	human HSL (Homo sapiens, UniProt Q05469)	no (0)
Cc1ccc(O[C@H]2CC[C@@]3(CCN(c4ccc(OC(F)(F)F)cc4)C3=O)CC2)nn1	human HSL (Homo sapiens, UniProt Q05469)	no (0)
CC(C)c1ccc(N2CC[C@]3(CC[C@@](O)(c4ccccc4)CC3)C2=O)cc1	human HSL (Homo sapiens, UniProt Q05469)	yes (1)
CC(C)OC[C@]1(O)CC[C@]2(CCN(c3ccc(O[C@H](C)C(F)(F)F)nc3)C2=O)CC1	human HSL (Homo sapiens, UniProt Q05469)	yes (1)
CCC[C@]1(O)CC[C@@]2(CCN(c3ccc(OCCC(F)(F)F)cc3)C2=O)CC1	human HSL (Homo sapiens, UniProt Q05469)	no (0)
O=C1N(c2ccc(OCC(F)(F)F)cc2)CC[C@]12CC[C@@](O)(COc1ccccn1)CC2	human HSL (Homo sapiens, UniProt Q05469)	yes (1)
CC(Oc1ccc(N2CC[C@]3(CC[C@@](O)(C4CC4)CC3)C2=O)cc1)C(F)(F)F (some centres unmarked)	human HSL (Homo sapiens, UniProt Q05469)	yes (1)
CCC[C@]1(O)CC[C@@]2(CCN(c3ccc(C(O)C(F)(F)F)cc3)C2=O)CC1 (some centres unmarked)	human HSL (Homo sapiens, UniProt Q05469)	no (0)
CCC[C@]1(O)CC[C@]2(CCN(c3ccc(C(C)(C)C)cc3)C2=O)CC1	human HSL (Homo sapiens, UniProt Q05469)	yes (1)
CCCc1ccc(N2CC[C@]3(CC[C@@](O)(CC)CC3)C2=O)cc1	human HSL (Homo sapiens, UniProt Q05469)	no (0)
CC[C@]1(O)CC[C@@]2(CCN(c3ccc(OCC(F)(F)F)cc3)C2=O)CC1	human HSL (Homo sapiens, UniProt Q05469)	no (0)
NC(=O)O[C@H]1CC[C@@]2(CCN(c3ccc(OC(F)(F)F)cc3)C2=O)CC1	human HSL (Homo sapiens, UniProt Q05469)	no (0)
CC(C)(C)c1ccc(N2CC[C@]3(CC[C@@H](Cc4ccn[nH]4)CC3)C2=O)cc1	human HSL (Homo sapiens, UniProt Q05469)	yes (1)
CCCS(=O)(=O)C[C@]1(O)CC[C@]2(CCN(c3ccc(OC(C)C)nc3)C2=O)CC1	human HSL (Homo sapiens, UniProt Q05469)	no (0)
O=C1N(c2ccc(OCC(F)(F)F)cc2)CC[C@]12CC[C@](O)(COc1ccccn1)CC2	human HSL (Homo sapiens, UniProt Q05469)	yes (1)
O=C1N(c2ccc(OCC(F)(F)F)cc2)CC[C@]12CC[C@](O)(COCc1ccccc1)CC2	human HSL (Homo sapiens, UniProt Q05469)	no (0)
